The reported numbers originate from a collection of fitness landscapes (doi:10.1016/j.celrep.2020.107928).

I'd be grateful if you could share measured one-hybrid fitness for binding NBS DNA for these entries.
B1: Caulobacter ParB omega fusion; a variant is named by its letters at X, in order, B8GW30 (parent)
chain: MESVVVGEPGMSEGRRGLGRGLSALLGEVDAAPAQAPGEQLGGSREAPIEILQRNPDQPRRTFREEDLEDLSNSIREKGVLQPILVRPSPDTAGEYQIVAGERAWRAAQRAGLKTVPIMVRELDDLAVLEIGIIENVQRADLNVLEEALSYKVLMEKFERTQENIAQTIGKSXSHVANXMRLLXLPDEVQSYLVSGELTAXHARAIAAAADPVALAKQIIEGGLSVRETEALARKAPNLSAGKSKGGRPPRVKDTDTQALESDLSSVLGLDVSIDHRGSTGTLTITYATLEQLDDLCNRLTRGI

- Variants of: B1
- experiment: one-hybrid fitness for binding NBS DNA (the Noc-binding site; scaled: cognate 1, non-cognate 0); higher = stronger binding
- reported_conditions: with NBS DNA site
In all, about 81,000 sequences were measured (“one-hybrid fitness for binding NBS DNA”: median about -0.1, highest 2% from about 0.36 on). This is one part of a sample in which the highest values are shown more often than they occur.

For orientation, consider the following solved cases.
alteration	one-hybrid fitness for binding NBS DNA
TDRM	≤ 0.2
GLAR	≤ 0.2
QALT	0.352
TRRT	0.526
PCIT	≤ 0.2
QIYT	0.335

Please go through the list and note one-hybrid fitness for binding NBS DNA for each variant.
1. ADQR
2. LIKT
3. TRRN
4. HGQT
5. QWKS

Key:
≤ 0.2
≤ 0.2
≤ 0.2
≤ 0.2
≤ 0.2

Please go through the list and note one-hybrid fitness for binding NBS DNA for each variant.
1. TRRS
2. QART
3. DHMR

Key:
1. 0.38
2. 0.716
3. ≤ 0.2

Please go through the list and note one-hybrid fitness for binding NBS DNA for each variant.
1. STTR
2. QLYT
3. TRNT
4. DAAD
5. KGMW
6. TTVS

Key:
["≤ 0.2", 0.355, 0.459, "≤ 0.2", "≤ 0.2", "≤ 0.2"]

Please go through the list and note one-hybrid fitness for binding NBS DNA for each variant.
1. TCKT
2. NTFG

Key:
≤ 0.2
≤ 0.2
